Origin of the recorded values: patent US20160346249A1

test: in vivo; details: male, Crl:CD-1(ICR) BR, mouse, po, 100 mg/kg/day, Tmax
readoutLabel: Tmax (h)
Numbers only here, please. The scale is h.

Query: Recorded Tmax of Clc1ccc([C@]23CNC[C@H]2C3)cc1Cl [amitifadine] , please.
Reply: 2

###

test: Single rising oral dose (10-150 mg IR) safety, tolerance and pharmacokinetics in healthy male volunteers; type: in vivo, human; conditions: human, plasma, oral, 100 mg, individual subject; read-out: AUC0-t
readoutLabel: AUC(0-t) (ng·h/mL)
Numbers only here, please. The scale is ng·h/mL.

Query: Recorded AUC(0-t) of Clc1ccc([C@]23CNC[C@H]2C3)cc1Cl [amitifadine] , please.
Reply: 4960
